- experiment: SPECT/CT biodistribution of 111In-labeled tracers in HEK-FAP tumor-bearing mice
- Assay type: in vivo, mouse
- measurement-context: female, mouse, tumor and kidney, iv, 30 MBq, total radioactivity; tumor-to-kidney, 48 h p.i.; read-out: T/K ratio (mean ± SD)
reported-endpoint: tissue to tissue ratio at 48 h
Lab note: record the figure alone, no unit after it.

Incoming: Provide only the value of recorded tissue to tissue ratio at 48 h for CCCCCC(=O)N[C@H]1CSCc2cc(CSCCNC(=O)CN3CCN(CC(=O)O)CCN(CC(=O)O)CCN(CC(=O)O)CC3)cc(c2)CSC[C@@H](C(=O)O)NC(=O)[C@H](Cc2ccccc2)NC(=O)[C@H](CCC(N)=O)NC(=O)[C@H]([C@@H](C)O)NC(=O)[C@@H]2CCCN2C(=O)[C@@H]2CCCN2C1=O [^111In-FAP-2286, metal not drawn]
Outgoing: 7.5

----------
- experiment: SPECT/CT biodistribution of 111In-labeled tracers in HEK-FAP tumor-bearing mice
- Type: in vivo, mouse
- measurement-context: female, mouse, tumor and kidney, iv, 30 MBq, total radioactivity; tumor-to-kidney, 3 h p.i.; read-out: T/K ratio (mean ± SD)
reported-endpoint: tissue to tissue ratio at 3 h
Lab note: record the figure alone, no unit after it.

Incoming: Provide only the value of recorded tissue to tissue ratio at 3 h for CCCCCC(=O)N[C@H]1CSCc2cc(CSCCNC(=O)CN3CCN(CC(=O)O)CCN(CC(=O)O)CCN(CC(=O)O)CC3)cc(c2)CSC[C@@H](C(=O)O)NC(=O)[C@H](Cc2ccccc2)NC(=O)[C@H](CCC(N)=O)NC(=O)[C@H]([C@@H](C)O)NC(=O)[C@@H]2CCCN2C(=O)[C@@H]2CCCN2C1=O [^111In-FAP-2286, metal not drawn]
Outgoing: 4.6

----------
- experiment: SPECT/CT biodistribution of 111In-labeled tracers in HEK-FAP tumor-bearing mice
- Type: in vivo, mouse
- measurement-context: mouse, in vivo, non-tumor bearing shoulder, 24 h p.i.; read-out: Shoulder %ID/g (mean ± SD)
- Procedure: HEK-FAP cell line was generated using the vector pTAR to insert FAP complementary DNA by recombinase-mediated cassette exchange into the pre-tagged HEK293 cells (InSCREENeX). […] Thirty megabecquerels (30 MBq/nmol) ^111In-FAP-2286 (n = 9) or ^111In-FAPI-04 (n = 6) was injected intravenously (IV) into HEK-FAP tumor-bearing mice and the distribution of the radiotracers was assessed using the NanoSPECT/computed tomography (CT) system (Mediso). […]
reported-endpoint: tissue uptake at 24 h (%ID/g)
Give the value, in units of %ID/g, as a plain number.

Incoming: Provide only the value of recorded tissue uptake at 24 h for CCCCCC(=O)N[C@H]1CSCc2cc(CSCCNC(=O)CN3CCN(CC(=O)O)CCN(CC(=O)O)CCN(CC(=O)O)CC3)cc(c2)CSC[C@@H](C(=O)O)NC(=O)[C@H](Cc2ccccc2)NC(=O)[C@H](CCC(N)=O)NC(=O)[C@H]([C@@H](C)O)NC(=O)[C@@H]2CCCN2C(=O)[C@@H]2CCCN2C1=O [^111In-FAP-2286, metal not drawn]
Outgoing: 0.1
